Provide the recorded inhibition at 4 µM for the entries that follow.
study.system: mOREG (Mus musculus)
Sequence (Q920P2 1-313): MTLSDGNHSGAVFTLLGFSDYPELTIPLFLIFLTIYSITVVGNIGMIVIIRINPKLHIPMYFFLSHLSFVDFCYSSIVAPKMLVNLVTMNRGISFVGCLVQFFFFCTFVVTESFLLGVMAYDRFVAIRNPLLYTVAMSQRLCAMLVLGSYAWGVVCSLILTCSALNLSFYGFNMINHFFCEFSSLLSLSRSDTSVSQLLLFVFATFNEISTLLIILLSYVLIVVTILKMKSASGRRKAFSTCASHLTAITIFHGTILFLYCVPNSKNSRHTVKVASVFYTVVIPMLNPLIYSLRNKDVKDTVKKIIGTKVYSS
procedure.text: Ca2+-imaging, control receptor mOREG
Type: cell-based
condition.details: compound applied at 4 μM; read-out: Percent Inhibition mOREG

# query: inhibition at 4 µM | item CCn1c(C)c(C(=O)CN(CC2CCCO2)C(=O)C2C[C@H]2c2ccccc2)c(C)c1C(=O)OC (some centres unmarked) | system: mOREG (Mus musculus)
26 to 50%

Then this compound: Cc1ccccc1C(=O)N[C@@H]1CCCCC1NC(=O)C1CCCN(S(=O)(=O)c2cc(Cl)ccc2Cl)C1 (some centres unmarked)
26 to 50%

Then this compound: C=C[C@@](C)(O)CCC1C(=C)CCC2[C@@](C)(CO)CCC[C@]12C (some centres unmarked)
26 to 50%

Then this compound: CC(=O)OCC(=O)NCC1Cc2cc(Oc3ccccc3)ccc2O1 (centres unmarked)
< 25%

Then this compound: "COCCNC(=O)c1ccc(CSc2nnc(-c3ccc(C)cc3)n2-c2ccccc2C)cc1"
26 to 50%

Then this compound: COc1ccc(N2CCN(C(=O)C3CC=CCC3C(=O)NCCCCc3ccccc3)CC2)cc1 (centres unmarked)
26 to 50%

Then this compound: O=C(c1cccnc1Cl)N1CCOC(COCc2c(Cl)cccc2Cl)C1 (centres unmarked)
< 25%

Then this compound: "COc1ccccc1CCC(=O)N1CCC(CCC(=O)Nc2ccccc2)CC1"
26 to 50%

---

study.system: TRP channel (TRPM8) (Mus musculus)
Construct: Full-length cDNAs for mosquito (Anopheles gambiae) odorant receptor (OR1, OR2, OR7, OR8, OR28), and fly (Drosophila melanogaster) odorant receptor (Or47a, Or83b), mouse TRP channel (TRPM8); expressed in transfected cells
Sequence (Q8R4D5 whole entry): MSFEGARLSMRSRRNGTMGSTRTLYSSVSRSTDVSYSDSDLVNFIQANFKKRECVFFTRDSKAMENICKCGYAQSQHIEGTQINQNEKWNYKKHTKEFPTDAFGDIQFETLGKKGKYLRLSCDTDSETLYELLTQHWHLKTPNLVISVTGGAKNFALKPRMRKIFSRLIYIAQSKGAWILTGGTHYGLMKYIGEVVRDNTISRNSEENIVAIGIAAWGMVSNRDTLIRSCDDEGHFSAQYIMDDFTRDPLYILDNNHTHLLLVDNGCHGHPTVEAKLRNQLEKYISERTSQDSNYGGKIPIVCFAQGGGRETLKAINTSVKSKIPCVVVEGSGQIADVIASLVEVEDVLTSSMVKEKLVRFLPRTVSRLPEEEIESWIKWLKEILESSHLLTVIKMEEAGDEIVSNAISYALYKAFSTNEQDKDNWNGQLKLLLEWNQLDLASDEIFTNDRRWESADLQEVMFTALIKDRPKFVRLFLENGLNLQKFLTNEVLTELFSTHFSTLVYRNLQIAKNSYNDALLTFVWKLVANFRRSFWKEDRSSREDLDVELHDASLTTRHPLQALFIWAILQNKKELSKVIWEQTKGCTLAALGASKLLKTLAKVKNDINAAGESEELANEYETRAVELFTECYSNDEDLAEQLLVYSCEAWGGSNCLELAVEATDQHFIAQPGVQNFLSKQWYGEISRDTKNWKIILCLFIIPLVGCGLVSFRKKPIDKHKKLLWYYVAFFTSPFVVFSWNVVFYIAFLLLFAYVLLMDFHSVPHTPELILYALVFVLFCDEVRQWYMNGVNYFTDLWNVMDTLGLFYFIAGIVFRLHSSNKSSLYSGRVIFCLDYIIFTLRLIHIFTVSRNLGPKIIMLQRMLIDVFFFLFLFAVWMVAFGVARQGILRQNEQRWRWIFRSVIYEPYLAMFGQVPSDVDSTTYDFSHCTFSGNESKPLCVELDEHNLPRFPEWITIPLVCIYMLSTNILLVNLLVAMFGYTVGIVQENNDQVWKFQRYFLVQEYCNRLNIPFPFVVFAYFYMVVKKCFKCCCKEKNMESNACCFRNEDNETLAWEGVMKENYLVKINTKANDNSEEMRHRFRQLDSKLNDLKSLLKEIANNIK
procedure.text: Ca2+-imaging of stable HEK293T cell line TRPM8
Assay type: cell-based
condition.details: HEK-293T; compound applied at 4 μM; read-out: Percent Inhibition TRPM8
Description: Full-length cDNAs for mosquito (Anopheles gambiae) odorant receptor (OR1, OR2, OR7, OR8, OR28), and fly (Drosophila melanogaster) odorant receptor (Or47a, Or83b), mouse TRP channel (TRPM8), and mouse serotonin receptor (5HT3) were obtained and subcloned into mammalian expression vectors. […] Compounds ([…] in DMSO) were stored in 384-well plates, and last two columns (32 wells total) contained only DMSO. […] Ca^2+ increase was monitored with fluorescence at 525 nm by excitation at 485 nm.
Provide the recorded inhibition at 4 µM for the entries that follow.

Can you share its inhibition at 4 µM? I mean this compound: "COCCNC(=O)c1ccc(CSc2nnc(-c3ccc(C)cc3)n2-c2ccccc2F)cc1"
< 25%

Then this compound: "Cc1cc(N(C)C2CCCCC2)nc(SCc2cccc(C(=O)N3CCCC3)c2)n1"
< 25%

Then this compound: "O=C(C1CCC1)N(Cc1ccco1)Cc1nccn1Cc1ccccc1Cl"
< 25%

Then this compound: "COc1nc(OCC#N)nc(N2CCCCC2)n1"
26 to 50%

Then this compound: "c1ccc(CNc2nc(NCc3ccco3)nc(N3CCOCC3)n2)cc1"
26 to 50%

---

study.system: mOREG (Mus musculus)
procedure.text: Ca2+-imaging, control receptor mOREG
Format: cell-based
condition.details: compound applied at 4 μM; read-out: Percent Inhibition mOREG
Protocol: Stable cell lines were cultured in 10 cm dishes, and confluent cells (70-80%) were trypsinized. 10,000 cells/20 μL were transferred into each well of 384-well plates coated with poly-D-lysine, and cultured for 2 days. […] 20 μL of Ca-4 dye was loaded into each well for 1.5 hr at room temperature in the dark, and the dye-loaded plates were subjected to Ca^2+-imaging using a Hamamatsu FDSS6000 real time fluorescence plate reader. […]
reported.property: inhibition at 4 µM

Can you share its inhibition at 4 µM? I mean this molecule: Cc1c(C(=O)NCc2ccco2)cnn1-c1ccccc1 [RU-0047765]
< 25%

Then this molecule: O=C(NCCC(=O)N1CCOC(COCc2ccc(F)cc2Cl)C1)OCc1ccccc1 (centres unmarked) [RU-0050344]
26 to 50%

Then this molecule: Cc1ccc(CN(Cc2ccc(F)cc2)C(=O)CN(C(=O)NC(C)(C)C)C2CC2)s1 [RU-0052360]
26 to 50%

Then this molecule: CCOC(=O)CCC(=O)N(CCc1ccccc1)CC(=O)Nc1cc(C(C)(C)C)nn1-c1ccccc1C [RU-0072462]
< 25%

Then this molecule: COCCN(Cc1c(-c2ccccc2)noc1N1CCSCC1)CC(O)COCc1ccco1 (centres unmarked) [RU-0037278]
26 to 50%

Then this molecule: CC(C)CN(Cc1nccn1Cc1c(F)cccc1Cl)C(=O)c1ccc(F)cc1 [RU-0048054]
< 25%

Then this molecule: O=C(c1cccc(F)c1)N(Cc1c(-c2ccccc2)noc1N1CCCC1)CC1CCCO1 (centres unmarked) [RU-0037434]
26 to 50%

Then this molecule: COc1cc(OC)cc(C2NC(=O)N(C)C3=C2C(=O)N(C2CCCCC2)C3)c1 (centres unmarked) [RU-0047750]
< 25%
